Parameter GI50: see the listing below.
Test system: NCI-H522 lung
experimental.protocol: NCI tumour cell line growth inhibition, 48 h
recorded.endpoint: GI50

INSERT INTO measurements (molecule, recorded_endpoint, reported_result) VALUES
  ('COc1c(O)c2c(c3cc(C(=O)N4CCc5c4c(O)c(OC)c4[nH]c(C(=O)N6CC7CC78C6=CC(=O)c6[nH]cc(C)c68)cc54)[nH]c13)CCN2C(N)=O (centres undefined)', 'GI50', '0.0168 µg/mL'),
  ('C#Cc1cccc(Nc2ncnc3cc(OCCOC)c(OCCOC)cc23)c1', 'GI50', '0.901 µM'),
  ('CC1=C([Se]CC(OC(=O)CC[Se]c2ccccc2)C(=O)NCCCCCC(=O)OCc2ccccc2)C(=O)c2ccccc2C1=O (centres undefined)', 'GI50', '2.28 µM'),
  ('Cc1ccc(C(CN(C)C)C(=O)c2ccccc2)cc1 (centres undefined)', 'GI50', '1.8 µM');

* * *

Tested on: KM20L2 colon
experimental.protocol: NCI tumour cell line growth inhibition, 48 h
recorded.endpoint: TGI

INSERT INTO measurements (molecule, recorded_endpoint, reported_result) VALUES
  ('COc1ccccc1NC(=O)CSC(N)=O', 'TGI', '> 100 µM'),
  ('Cc1c(/C=N/NS(=O)(=O)c2ccccc2)no[n+]1[O-]', 'TGI', '> 100 µM'),
  ('CC(C)C(=O)/C=C/c1ccccc1', 'TGI', '> 100 µM'),
  ('O=c1n(C2CCCCC2)c(=C(Cl)Cl)c(=C(Cl)Cl)n1C1CCCCC1', 'TGI', '> 100 µM'),
  ('O=C1NC(=S)NC(=O)C1=Cc1cc2c(cc1[N+](=O)[O-])OCO2', 'TGI', '> 100 µM'),
  ('COc1ccc2[nH]c(-c3ccccn3)cc(=O)c2c1', 'TGI', '> 100 µM'),
  ('Cc1ccc(NC(=O)CC2C(=O)Nc3ccccc3S2=O)cc1C (stereo unspecified)', 'TGI', '> 100 µM'),
  ('O=C(O)CNc1c2ccccc2nc2ccccc12', 'TGI', '> 100 µM'),
  ('CCOc1ccc(N=Cc2cccc3cccnc23)cc1', 'TGI', '> 100 µM'),
  ('COc1c(O)c2c(c3cc(C(=O)N4CCc5c4c(O)c(OC)c4[nH]c(C(=O)N6CC7CC78C6=CC(=O)c6[nH]cc(C)c68)cc54)[nH]c13)CCN2C(N)=O (stereo unspecified)', 'TGI', '0.0181 µM'),
  ('N#CC(NNC(=O)c1ccccc1O)c1ccc(O)cc1 (stereo unspecified)', 'TGI', '> 100 µM');

* * *

Tested on: EKVX NSCLC
experimental.protocol: NCI tumour cell line growth inhibition, 48 h
Parameter TGI: see the listing below.
recorded.endpoint: TGI

INSERT INTO measurements (compound, recorded_endpoint, reported_result) VALUES
  ('CCOC(=O)/C(C1=N[C@H](C(=O)OCC)CS1)=C(\O)c1ccccc1', 'TGI', '> 100 µM'),
  ('Clc1ccc(-n2nnc(C3=NCCN3)c2-c2ccccc2)cc1', 'TGI', '> 100 µM'),
  ('CCOc1ccc(N=Cc2cccc3cccnc23)cc1', 'TGI', '> 100 µM'),
  ('Cc1c(C#N)cccc1-c1cc(-c2cn(Cc3cccc(C(C)(C)O)n3)nn2)nc(N)n1', 'TGI', '> 100 µM'),
  ('Cc1ccc(C2(N3CCOCC3)OC(C)(C)c3cccc4cccc2c34)cc1 (stereo not drawn)', 'TGI', '29.2 µM'),
  ('O=C(O)CNc1c2ccccc2nc2ccccc12', 'TGI', '> 100 µM'),
  ('O=Cc1c(-c2cc(O)ccc2O)nc2sccn12', 'TGI', '93.1 µM'),
  ('Cc1cccc(=O)c([O-])c1.Cc1cccc(=O)c([O-])c1.Cc1cccc(=O)c([O-])c1.Cc1cccc(=O)c([O-])c1.[Th+4]', 'TGI', '> 89.1 µM'),
  ('O=C1/C(=C/C=C/c2ccccc2)CCC1CNc1ccc(Br)cc1 (stereo not drawn)', 'TGI', '> 100 µM'),
  ('Cc1cc2nc3c(N)nn(CCN(C)C)c3nc2cc1C', 'TGI', '> 100 µM'),
  ('COC(=O)C1=C(C)N(NC(N)=O)C2(N)N(NC(N)=O)C(C)=C(C(=O)OC)C12C(=O)OC (stereo not drawn)', 'TGI', '> 100 µM'),
  ('CC1Cc2c(cc(N)nc2Br)NC1=O (stereo not drawn)', 'TGI', '> 100 µM'),
  ('O=c1cccc(C#CC#C[C@H]2O[C@@H]2CO)o1', 'TGI', '4.18 µM'),
  ('CC(C)N(C(=O)C12C3C4C5(C#N)C3C1(I)C5C42I)C(C)C (stereo not drawn)', 'TGI', '> 100 µM'),
  ('COCCn1cc(-c2csc(-c3c[nH]c4ccccc34)n2)c2cccnc21', 'TGI', '> 100 µM'),
  ('O=C(O)c1cc(Nc2c(O)c3c(c(O)c2Cl)C(=O)C=CC3=O)ccc1O', 'TGI', '> 10 µM'),
  ('c1ccc(Cc2nc3ccc(Nc4ncnc5ccccc45)cc3[nH]2)cc1', 'TGI', '> 25 µM'),
  ('N#C[C@H]1C(=O)C(c2nc3ccccc3[nH]2)S[C@H]1c1ccccc1 (stereo partly drawn)', 'TGI', '> 100 µM'),
  ('COc1cc2oc(=O)ccc2cc1C1OC(=O)C2OC21C (stereo not drawn)', 'TGI', '> 100 µM'),
  ('Cn1c(O)c(/C=N/c2ncccn2)c(=O)[nH]c1=O', 'TGI', '> 100 µM'),
  ('CCn1c(SCc2nnc(Nc3ccccc3)s2)nc2ccccc2c1=O', 'TGI', '17.3 µM'),
  ('Cc1ccc(C(CN(C)C)C(=O)c2ccccc2)cc1 (stereo not drawn)', 'TGI', '23.1 µM'),
  ('O=C1Sc2cc3ccccc3cc2C(=O)Sc2cc3ccccc3cc21', 'TGI', '> 100 µM');

* * *

Parameter GI50: see the listing below.
Tested on: NCI-H226 lung
experimental.protocol: NCI tumour cell line growth inhibition, 48 h
recorded.endpoint: GI50

INSERT INTO measurements (compound, recorded_endpoint, reported_result) VALUES
  ('NC(=O)c1cnc(N[C@@H]2CCCC[C@@H]2N)nc1Nc1cccc(-n2nccn2)c1', 'GI50', '4.73 µM'),
  ('Cc1ccc2c(c1)nc(C(=O)c1ccco1)c(C(F)(F)F)[n+]2[O-]', 'GI50', '> 100 µM'),
  ('COc1ccc(/C=C/C(=O)c2cc3c(N)c(C(=O)Nc4ccccc4Cl)sc3nc2C)cc1', 'GI50', '2.43 µM'),
  ('CSc1nc2c(c(=O)[nH]1)N=C1c3ccccc3C(=O)C1C(c1ccc(F)cc1)N2 (centres undefined)', 'GI50', '15.3 µM');

* * *

System: OVCAR-5 ovarian
experimental.protocol: NCI tumour cell line growth inhibition, 48 h
recorded.endpoint: TGI

INSERT INTO measurements (compound, reported_result) VALUES
  ('CC[C@]1(O)CC2CN(CCc3c([nH]c4ccccc34)[C@@](C(=O)OC)(c3cc4c(cc3OC)N(C)[C@H]3[C@@](O)(C(=O)OC)[C@H](OC(C)=O)[C@]5(CC)C=CCN6CC[C@]43[C@@H]65)C2)C1 (some centres not stated)', '> 47.2 µM'),
  ('O=C(c1ccccc1)c1ccc2nc(-c3c(Cl)c(Cl)c(Cl)c(Cl)c3C(=O)Nc3ccco3)[nH]c2c1', '> 100 µM'),
  ('CC1=C(/C=C/C(C)=C\C=C\C(C)=C\C(=O)Nc2ccc3c(c2)OCO3)C(C)(C)CCC1', '> 100 µM'),
  ('CN1CCCC(OC(=O)c2cc3cc(CCl)ccc3oc2=O)C1 (configuration not stated)', '43.4 µM'),
  ('COc1ccc(/C=N/N=C(\N)NO)cc1OC', '> 100 µM'),
  ('Cc1ccc(NC(=O)CC2C(=O)Nc3ccccc3S2=O)cc1C (configuration not stated)', '> 100 µM'),
  ('CCOc1ccc(N=Cc2cccc3cccnc23)cc1', '> 100 µM'),
  ('CCOC(=O)CC(=O)Sc1ccccc1', '> 100 µM'),
  ('O=c1cnc2cc3ccccc3cc2[nH]1', '> 100 µM'),
  ('COc1ccc(/C=N/N=C(\N)NO)c(OC)c1OC', '> 100 µM'),
  ('NC(=O)c1cnc(N[C@@H]2CCCC[C@@H]2N)nc1Nc1cccc(-n2nccn2)c1', '15.3 µM'),
  ('COc1cc(Nc2nc3cc(N)cc(N)c3nc2-c2ccccc2)cc(OC)c1', '> 100 µM'),
  ('COC(C/C=C\C=C\CC/C=C/CC(C)/C=C/C(=C\C(=O)O)CC(=O)O)/C(C)=C\C=C(/C)C(=O)O (configuration not stated)', '> 100 µM'),
  ('CC1Cc2c(cc(N)nc2Br)NC1=O (configuration not stated)', '> 100 µM'),
  ('C/C(=C\COP(=O)(O)OP(=O)(O)O)CC/C=C(\C)CNc1ccccc1', '> 50 µM'),
  ('COc1ccc2[nH]c(-c3ccccn3)cc(=O)c2c1', '> 100 µM'),
  ('COC(=O)NC(Nc1ccc(C)cc1)(C(F)(F)F)C(F)(F)F', '> 100 µM'),
  ('CC(=O)Nc1ccc(C(=O)N2N=C(C)/C(=C/c3ccccc3O)C2=O)cc1', '> 100 µM'),
  ('O=P1(N(CCCl)CCCl)NCCCO1 (configuration not stated)', '> 238 µM'),
  ('O=C1/C(=C/C=C/c2ccccc2)CCC1CNc1ccc(Br)cc1 (configuration not stated)', '> 100 µM'),
  ('Cc1ccc2c(c1)nc(C(=O)c1ccco1)c(C(F)(F)F)[n+]2[O-]', '> 100 µM'),
  ('CC(=O)Nc1ccc(/C=C/[N+](=O)[O-])cc1', '9.25 µM');

All values here come from PubChem BioAssay (NCI).
